Origin of the recorded values: ChEMBL document CHEMBL1201862

System: MDA-N
protocol: NCI tumour cell line growth inhibition, 48 h
Active and inactive are the calls of the source. Cut-off read from the data, not from the text of the source: active = GI50 up to about 1.1 µM and inactive = higher.

compound: COc1oc(C(=O)NC2CCCCC2)c(-c2ccc(Cl)cc2)c1S(=O)(=O)c1ccccc1
GI50: 64 µM (inactive)

compound: COC1=C[C@]2(CCC(=O)O2)[C@@H]2Cc3ccccc3[C@H](O)[C@@H]2C1=O
GI50: 15.8 µM (inactive)

compound: c1ccc2c(c1)c1c3c(c4c(n32)=NCCN4)CCC1
GI50: 20.7 µM (inactive)

compound: O=C1OC(c2ccccc2)N(C(=O)c2ccccc2)C1Cc1ccc(OCc2ccccc2)cc1 (stereo not given)
GI50: > 100 µM (inactive)

compound: CC(C)Oc1c(N(Cc2ccccc2)c2ccccc2C2SCCCS2)c(=O)c1=O
GI50: 3.1 µM (inactive)

compound: COc1cccc(C2c3cc4c(cc3OC(C)(N3CCCC3)C2C)OCO4)c1OC (stereo not given)
GI50: 10.6 µM (inactive)

compound: Cc1ccc(SCC(CF)OCn2cc(F)c(=O)[nH]c2=O)cc1 (stereo not given)
GI50: > 100 µM (inactive)

compound: CCOC(=O)[C@@H]1ON2OC(OC3CCCC3(c3ccccc3)c3ccccc3)C(OC(C)=O)[C@H]3OC(=O)[C@@H]1C32 (stereo not given in full)
GI50: > 100 µM (inactive)

compound: Cc1ccc2c(c1)C(=O)C1(C2)Cc2c(C)cccc2C1=O (stereo not given)
GI50: > 100 µM (inactive)

compound: O=C1C(O)=C(CC=C(Cl)Cl)C(=O)c2ccccc21
GI50: 16.4 µM (inactive)

====

Tested on: HL-60
protocol: NCI tumour cell line growth inhibition, 48 h
Active and inactive are the calls of the source. No stated cut-off is given here; in the data, active = GI50 up to about 1.1 µM and inactive = higher.
Labels: active, inactive

molecule: CCOC(=O)c1nc2cc(C(F)(F)F)ccc2nc1Nc1ccc(C(=O)OC)s1
label: inactive
//
molecule: CC(C)(Cc1ccccc1)Cc1cc(O)ccc1O
label: inactive
//
molecule: O=c1c(NCc2ccccc2)c(C2(c3ccccc3F)SCCCS2)c1=O
label: inactive
//
molecule: NCC(Cc1ccccc1)P(=O)(O)O (stereo unspecified)
label: inactive
//
molecule: Nc1ncnc2c1ncn2[C@]1(CO)C=C(CO)C(O)C1O (stereo partly specified)
label: inactive
//
molecule: CN(C)c1ccc(/C=C(\C#N)C(=O)c2ccccc2)cc1Br
label: inactive
//
molecule: CC1(C)OC2CC3COC(=O)C3CC2O1 (stereo unspecified)
label: inactive
//
molecule: COc1cccc(C2c3cc4c(cc3OC(C)(N3CCCC3)C2C)OCO4)c1OC (stereo unspecified)
label: inactive
//
molecule: O=C(NNC(=O)/C(=C/c1cccc([N+](=O)[O-])c1)NC(=O)c1ccccc1)Nc1ccc(Cl)cc1
label: inactive
//
molecule: CC(=O)O/N=C/c1ncccc1CO
label: inactive
//
molecule: COC(=O)C1(Cc2ccc3c(c2)CCC3)Cc2ccc3c(c2C1=O)CCC3 (stereo unspecified)
label: inactive
//
molecule: CC(=O)Nc1ccc2nncnc2c1
label: inactive
//
molecule: c1ccc2c(c1)NC1(N3CCCCC3)CCCCC21 (stereo unspecified)
label: inactive
//
molecule: C=C1CC(O)C2C(=C)C(=O)OC2C2C(C)C(=O)CC12 (stereo unspecified)
label: inactive
//
molecule: Fc1ccccc1C1CC(c2ccc3ccccc3c2)=Nc2ccccc2S1 (stereo unspecified)
label: inactive
//
molecule: C(/Cc1ccc2c(c1)OCO2)=N\N=C1NCCCN1
label: inactive
//
molecule: CCCc1[nH]nc(C(N)=O)c1/N=N/N(C)C
label: inactive
//
molecule: NC(=O)C1=CC2C3C=CC2(O)C(=O)OC3O1 (stereo unspecified)
label: inactive
//
molecule: OCC1CCCCCCCCCCC12SCCCS2 (stereo unspecified)
label: inactive
//
molecule: Cc1c(C#N)c2nnn(-c3cccc(Cl)c3)c(=O)n2c1-c1ccccc1
label: inactive
//
molecule: Oc1c2c(nc3cc4c(cc13)OCO4)-c1ccccc1CC2
label: inactive
//
molecule: O=C1CC2OCC=C3CN4CCC56c7ccccc7N1C5C2C3CC46O (stereo unspecified)
label: inactive
//
molecule: N#Cc1c(-c2ccccc2)[nH]c2ccccc2c1=O
label: inactive
//
molecule: CCOC(=O)c1c(N)sc2c1C(C(=O)OCC)CCCC2 (stereo unspecified)
label: inactive
//
molecule: CCCCCCCCCCCCCCCC(=O)OCC1OC(n2cc(F)c(=O)[nH]c2=O)C(N)C(O)C1O (stereo unspecified)
label: inactive
//
molecule: CC(=O)Nc1ccc2nc(-c3cccc(Cl)c3)cc(O)c2c1
label: inactive
//
molecule: N/N=C1\c2ccccc2C2/C(=N\N)c3ccccc3C12 (stereo unspecified)
label: inactive
//
molecule: C=C(C)[C@@H]1CC[C@]2(C(=O)OC3OC(COC4OC(CO)C(OC5OC(C)C(O)C(O)C5O)C(O)C4O)C(O)C(O)C3O)CC[C@]3(C)[C@H](CC[C@@H]4[C@@]5(C)CC[C@H](O)[C@@](C)(CO)[C@@H]5CC[C@]43C)[C@@H]12 (stereo partly specified)
label: active
//
molecule: CCOC(=O)/C(C#N)=C(/NS(=O)(=O)c1cc(C)c(Cl)cc1[S-])[n+]1ccc(N(C)C)cc1
label: inactive
//
molecule: CCCCCCCCCCCCCCCCNCC(O)CN (stereo unspecified)
label: inactive
//
molecule: CCOc1ccc2c(c1)c(CC(=O)O)cn2C
label: inactive
//
molecule: c1cc2cc(Cc3ccc4[nH]ccc4c3)ccc2[nH]1
label: inactive
//
molecule: Cc1nc(N2N=C(c3ccc(Cl)cc3)CCC2=O)sc1[N+](=O)[O-]
label: inactive
//
molecule: O=[N+]([O-])c1ccccc1/C=N/C12CC3CC(CC(C3)C1)C2
label: inactive
//
molecule: COC(=O)/C=C1/OC(c2ccccc2)=C(C)C1=O
label: inactive
//
molecule: COc1ccc(O)cc1C=O
label: inactive
//
molecule: c1ccc(-c2c[nH]c(SC(c3ccccc3)c3ccccc3)n2)cc1
label: inactive
//
molecule: Cc1cc(C)c2c(n1)S(=O)(=O)N(CCCN1CCN(c3cccc(Cl)c3)CC1)C(C(=O)c1ccc(Br)cc1)=C2O
label: inactive
//
molecule: CN(C)c1nnnn1-c1c(N)n(C)c(=O)n(C)c1=O
label: inactive
//
molecule: Cc1ccc(S(=O)(=O)N/N=C2/CCCOC2)cc1
label: inactive
//
molecule: COC(=O)c1ccccc1Nc1ccccc1C(=O)OC
label: inactive
//
molecule: CC(C)Oc1c(N(Cc2ccccc2)c2ccccc2C2SCCCS2)c(=O)c1=O
label: inactive
//
molecule: O/N=C1/CCCCC1NO (stereo unspecified)
label: inactive
//
molecule: c1ccc2c(c1)N=C(NC1CCCCC1)CCN2
label: inactive
//
molecule: COc1ccc(NC2C(=O)C3(C)CCC2C3(C)C)cc1 (stereo unspecified)
label: inactive
//
molecule: O=C(Nn1cc(F)c(=O)[nH]c1=O)C12CC3CC(CC(C3)C1)C2
label: inactive

====

Parameter GI50: see the listing below.
Test system: OVCAR-3
protocol: NCI tumour cell line growth inhibition, 48 h
Activity calls are given as the source filed them. Rule as the data show it: active = GI50 up to about 1.1 µM and inactive = higher.

compound: COc1ccc(O)cc1C=O
GI50: > 100 µM (inactive)
--
compound: COC(=O)CC[C@]12C[C@]13CC[C@]1(C)C4C(C)C[C@]5(CC(C)C(=O)O5)OC4CC1(C)C3CCC2C(C)(C)O (some centres undefined)
GI50: 76 µM (inactive)
--
compound: NC1NCCC(=O)N1CCc1c[nH]c2ccccc12 (centres undefined)
GI50: 20.9 µM (inactive)
--
compound: COc1ccc(NC2C(=O)C3(C)CCC2C3(C)C)cc1 (centres undefined)
GI50: > 100 µM (inactive)

====

Parameter GI50: see the listing below.
Tested on: HCT-116
protocol: NCI tumour cell line growth inhibition, 48 h
Calls of active or inactive are those of the source. Cut-off read from the data, not from the text of the source: active = GI50 up to about 1.1 µM and inactive = higher.
assay readout: GI50

compound string: C/C(=N\Nc1ccccc1)c1sc(-c2nc(C)c(/C(C)=N/Nc3ccccc3)s2)nc1C
assay readout: GI50
result: 33.7 µM (inactive)
--
compound string: O=C(O)c1cccc(SSc2cccc(C(=O)O)c2)c1
assay readout: GI50
result: > 100 µM (inactive)
--
compound string: C/C=C(/C)C(=O)O[C@H]1CCN2CC=C(COC(=O)[C@@](O)([C@H](C)OC)C(C)(C)O)[C@H]12
assay readout: GI50
result: > 100 µM (inactive)
--
compound string: CCOC(=O)c1ccc(Nc2nc3cc(C(F)(F)F)ccc3nc2-c2ccccc2)cc1
assay readout: GI50
result: 67.6 µM (inactive)
--
compound string: O=C1c2c(c3c4ccccc4[nH]c3c3[nH]c4ccccc4c23)C(=O)N1Cc1ccccc1
assay readout: GI50
result: 2.74 µM (inactive)

====

Test system: KM-20L2
protocol: NCI tumour cell line growth inhibition, 48 h
Activity calls are given as the source filed them. Rule as the data show it: active = GI50 up to about 1.1 µM and inactive = higher.
Labels: Y for active, N for inactive

molecule: O=C(CSc1nnc(-c2ccc(/N=C\c3ccc(Cl)cc3)cc2)o1)Nc1ccc(Cl)cc1Cl
assayed system: KM-20L2
label: N
//
molecule: COc1cc2c(cc1OC)C(Cc1cc(Br)c(OC)c(OC)c1)=[N+](C)CC2
assayed system: KM-20L2
label: N
//
molecule: N/N=C1\c2ccccc2C2/C(=N\N)c3ccccc3C12 (centres undefined)
assayed system: KM-20L2
label: N
//
molecule: CN(C)c1nnnn1-c1c(N)n(C)c(=O)n(C)c1=O
assayed system: KM-20L2
label: N
//
molecule: O=C(Nc1cccc(C(F)(F)F)c1)C(=O)C1NC(=S)NC1=O (centres undefined)
assayed system: KM-20L2
label: N
//
molecule: C/C=C(/CCC1NCCC2c3ccccc3NC12)[Si](C)(C)C (centres undefined)
assayed system: KM-20L2
label: N
//
molecule: COc1cc(/C=C2\CCC(CN(C)C)C2=O)ccc1OC(=O)c1ccccc1 (centres undefined)
assayed system: KM-20L2
label: N
//
molecule: N=C(c1ccccc1)N1CCCCC1
assayed system: KM-20L2
label: N
//
molecule: COC(=O)C1C(O)C(C)C(O)OC1C(C)C(O)C(C)/C=C\C=C(/C)C(=O)Nc1c(C)c(OC(C)=O)c2c(c1O)C(=O)C(C)=C1OCOC(/C(C)=C/C(C)=O)=C12 (centres undefined)
assayed system: KM-20L2
label: N
//
molecule: CC[C@@]1(O)C(=O)OCc2c1cc1n(c2=O)Cc2cc3c(N)cccc3nc2-1 [9-AMINOCAMPTOTHECIN]
assayed system: KM-20L2
label: Y
//
molecule: Oc1c2c(nc3cc4c(cc13)OCO4)-c1ccccc1CC2
assayed system: KM-20L2
label: N
//
molecule: O=C1C(O)=C(CC=C(Cl)Cl)C(=O)c2ccccc21
assayed system: KM-20L2
label: N
//
molecule: CN(C)C(=O)c1ccc([N+](=O)[O-])cc1
assayed system: KM-20L2
label: N
//
molecule: O=C(NNC(=O)/C(=C/c1cccc([N+](=O)[O-])c1)NC(=O)c1ccccc1)Nc1ccc(Cl)cc1
assayed system: KM-20L2
label: N
//
molecule: CCCCCCCCCCCCCCCC(=O)OCC1OC(n2cc(F)c(=O)[nH]c2=O)C(N)C(O)C1O (centres undefined)
assayed system: KM-20L2
label: N
//
molecule: C/C(Cc1ccccc1)=N\NC(N)=S
assayed system: KM-20L2
label: N
//
molecule: O=Cc1c(Cn2ccnc2)c2cc([N+](=O)[O-])ccc2n1Cc1ccccc1
assayed system: KM-20L2
label: N
//
molecule: CC12O[C@H](c3ccccc3)[C@H](c3ccccc3)N1C(=O)C1(C(=O)OCc3ccccc3)CC12 (some centres undefined)
assayed system: KM-20L2
label: N
//
molecule: O=C(Nc1c(O)[nH]c(=S)[nH]c1=O)c1ccco1
assayed system: KM-20L2
label: N
//
molecule: O=C(O)C1=C(CO)Oc2cc3c(cc2C1c1ccc2c(c1)OCO2)OCO3 (centres undefined)
assayed system: KM-20L2
label: N
//
molecule: CCCCCC/C=C1\CCC(CN2CCCC2)C1=O (centres undefined)
assayed system: KM-20L2
label: N
//
molecule: Cc1cc(O)cc2oc(=O)c3c(O)cc(O)cc3c12 [ALTERNARIOL]
assayed system: KM-20L2
label: N
//
molecule: O=C1c2c(c3c4ccccc4[nH]c3c3[nH]c4ccccc4c23)C(=O)N1Cc1ccccc1
assayed system: KM-20L2
label: N
//
molecule: Cc1nc(N2N=C(c3ccc(Cl)cc3)CCC2=O)sc1[N+](=O)[O-]
assayed system: KM-20L2
label: N
//
molecule: COc1cc(C(C)O)c[n+](CCC2CNc3ccccc32)c1 (centres undefined)
assayed system: KM-20L2
label: N
//
molecule: COc1ccc(C(=O)C(C(=O)CCC(=O)Nc2ccc(C)c(C)c2)c2ccc(OC)cc2)cc1 (centres undefined)
assayed system: KM-20L2
label: N
//
molecule: CC(O)C(C(=O)O)N(CC1(O)OCC(O)C(O)C1O)N=O (centres undefined)
assayed system: KM-20L2
label: N
//
molecule: C/C(=N\Nc1ccccc1)c1sc(-c2nc(C)c(/C(C)=N/Nc3ccccc3)s2)nc1C
assayed system: KM-20L2
label: N
//
molecule: O=C(NC(Cc1ccc(I)cc1)C(=O)O)c1ccc(Cl)cc1 (centres undefined)
assayed system: KM-20L2
label: N
